# assay info: M. tuberculosis growth inhibition, HTS (AID 449762);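 further: bacterial growth assessed after seven days of incubation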
# stated conditions: M. tuberculosis H37Rv growth inhibition, 7H9 media; at 25 µM; active compounds read high
Out of some 330,000 compounds screened, about 1,900 (0.58%) were called active. Another 4% or so got no clear call; they are omitted. A selection follows. Measured potencies and affinities stand elsewhere.

compound: COc1ccc(C(=O)N(CC2CCCO2)C(C(=O)NC2CCCC2)c2ccc(C)cc2)cc1OC (stereo not given)
inhibition: -13.5% (inactive)
--
compound: C/C(=N\NC(=O)c1ccc(C)cc1C)c1ccc2c(c1)Nc1ccccc1S2
inhibition: 7.51% (inactive)
--
compound: C/C(=N\NC(=O)c1ccccc1F)c1ccc2c(c1)Nc1ccccc1S2
inhibition: -0.8% (inactive)
--
compound: CC(C)Cn1c(N2CCN(C(=O)c3cccs3)CC2)nc2ccccc21
inhibition: -9% (inactive)
--
compound: NC(=O)c1ccsc1NC(=O)COC(=O)Cc1c[nH]c2ccccc12
inhibition: 2.86% (inactive)
--
compound: O=[N+]([O-])c1cc(Cl)ccc1N1CCN(c2cccc(C(F)(F)F)c2)CC1
inhibition: 12% (inactive)
--
compound: COc1ccc(-n2nc3c(c2NC(=O)CCCl)CSC3)cc1
inhibition: 5.23% (inactive)
--
compound: COc1ccccc1CNC(=O)C(CCSC)NS(=O)(=O)c1ccc2c(c1)oc(=O)n2C (stereo not given)
inhibition: 3.84% (inactive)
--
compound: CCn1c(N2CCN(C(=O)/C=C/c3ccccc3)CC2)nc2ccccc21
inhibition: 6.08% (inactive)
--
compound: CCOC(=O)C1=C(C)NC(SCC(=O)Nc2cc(C)on2)=C(C#N)C1c1cccs1 (stereo not given)
inhibition: -1.09% (inactive)
